Assay info: Inhibition of FAM-Bak-BH3 binding to human N-terminal His6-tagged Bcl2 isoform 2 after 4 hrs by fluorescence polarization assay
Assay endpoint: pKi
// pKi here means minus log10 of the molar concentration (mol/L)

Worked examples follow.
Cc1ccc(S(=O)(=O)NC(=O)[C@@H](NC2=NC(=O)/C(=C/c3ccccc3Cl)S2)C(C)C)cc1 | 7.60
COc1ccc(/C=C2\SC(N[C@H](C(=O)NS(=O)(=O)c3ccc(C)cc3)C(C)C)=NC2=O)cc1 | 6.17
Cc1ccc(S(=O)(=O)NC(=O)[C@H](Cc2ccccc2)NC2=NC(=O)/C(=C/c3ccccc3Cl)S2)cc1 | 7.70
Cc1cc2c(C(C)C)c(O)c(O)c(C=O)c2c(O)c1-c1c(C)cc2c(C(C)C)c(O)c(O)c(C=O)c2c1O | 6.48

Form field pKi, entry Cc1ccc(S(=O)(=O)NC(=O)[C@@H](NC2=NC(=O)/C(=C/c3ccccc3)S2)C(C)C)cc1 : 5.52

Looking up Cc1ccc(S(=O)(=O)NC(=O)[C@H](Cc2ccccc2)NC2=NC(=O)/C(=C/c3ccc(-c4ccccc4)cc3)S2)cc1 , I see its pKi listed as 6.51
